- assay explanation: Aqueous solubility assay
- Assay type: physicochemical
- test context: PBS buffer, kinetic from dmso stock, pH 7.4, theoretical final concentration of 200 μM
metric name: solubility at 24 h (µM)
Your answer is read as µM, so omit the unit and give the number.

Previously resolved entries follow.
{"compound": "O=C(O)c1ccc(C2CC2c2ccc(OCc3c(-c4c(Cl)cccc4Cl)noc3C3CC3)cc2Cl)cc1 (centres unmarked) [reference compound]", "solubility at 24 h, µM": 72}
{"compound": "O=C(O)c1cccc([C@H]2C[C@](O)(c3ccc(OCc4c(-c5c(Cl)cccc5Cl)noc4C4CC4)cc3Cl)C2)c1 [drawing 47]", "solubility at 24 h, µM": 192}
{"compound": "O=C(O)c1ccc(C2CC(O)(c3ccc(OCc4c(-c5c(Cl)cccc5Cl)noc4C4CC4)cc3Cl)C2)cc1 (centres unmarked)", "solubility at 24 h, µM": 192}
{"compound": "O=C(O)c1cccc(N2CC(O)(c3ccc(OCc4c(-c5c(Cl)cccc5Cl)noc4C4CC4)cc3Cl)C2)c1", "solubility at 24 h, µM": 195}

// moving on: another record for solubility at 24 h
Qu. Reported solubility at 24 h, compound O=C(O)c1cccc(C2CC2c2ccc(OCc3c(-c4c(Cl)cccc4Cl)noc3C3CC3)cc2Cl)c1 (centres unmarked) [reference compound] : ____
Ans. 20

###

- test target: FXR ligand binding domain (Homo sapiens)
- Construct: expressed in transfected cells; host or cells: HEK293 (DSMZ), transient transfection with a pCMV-BD construct
- assay explanation: Mammalian One Hybrid (M1H) assay, Gal4 reporter in HEK293 cells
- Format: cell-based
pEC50: −log10 of the molar value.
metric name: pEC50

Qu. API: value(readout=pEC50, system=FXR ligand binding domain (Homo sapiens)) for record O=C(O)c1ccnc(N2CC(O)(c3ccc(OCc4c(-c5c(Cl)cccc5Cl)noc4C4CC4)cc3Cl)C2)c1 (single isomer, unassigned)
Ans. < 7.00

###

- test target: FXR ligand binding domain (Homo sapiens, UniProt Q96RI1)
- Construct: expressed in transfected cells; host or cells: HEK293 (DSMZ), transient transfection with a pCMV-BD construct
- assay explanation: Mammalian One Hybrid (M1H) assay, Gal4 reporter in HEK293 cells
- Type: cell-based
- test context: Gal4-FXR LBD transactivation, HEK293 cells; read-out: EC50 potency range (Group), M1H assay
pEC50: −log10 of the molar value.
metric name: pEC50

{"molecule": "Cc1cc(C2CC(O)(c3ccc(OCc4c(-c5c(Cl)cccc5Cl)noc4C4CC4)cc3Cl)C2)cc(C)c1C(=O)O (single isomer, unassigned) [13/2]", "pEC50": "< 7.00"}

Qu. Reported pEC50, molecule CS(=O)(=O)c1cccc(C2CC(O)(c3ccc(OCc4c(-c5c(Cl)cccc5Cl)noc4C4CC4)cc3Cl)C2)c1 (stereo not drawn) [Example 6] : ____
Ans. < 7.00

Qu. Reported pEC50, molecule Cc1cc(C(=O)O)cc(C2CC(O)(c3ccc(OCc4c(-c5c(Cl)cccc5Cl)noc4C4CC4)cc3Cl)C2)c1 (single isomer, unassigned) [13/5] : ____
Ans. > 7.60

Qu. Reported pEC50, molecule O=C(O)c1ccc(C2CC(O)(c3ccc(OCc4c(-c5c(Cl)cccc5Cl)noc4C4CC4)cc3Cl)C2)cc1 (single isomer, unassigned) [Example 13/1] : ____
Ans. 7.00 to 7.60

Qu. Reported pEC50, molecule Cc1ccc(C(=O)O)cc1C1CC(O)(c2ccc(OCc3c(-c4c(Cl)cccc4Cl)noc3C3CC3)cc2Cl)C1 (single isomer, unassigned) [13/4] : ____
Ans. > 7.60

###

- test target: human FXR alpha ligand binding domain (Homo sapiens)
- Construct: made in house; host or cells: E. coli BL21(DE3), vector pDEST15
- Sequence (Q96RI1 187-472 isoform Q96RI1-2): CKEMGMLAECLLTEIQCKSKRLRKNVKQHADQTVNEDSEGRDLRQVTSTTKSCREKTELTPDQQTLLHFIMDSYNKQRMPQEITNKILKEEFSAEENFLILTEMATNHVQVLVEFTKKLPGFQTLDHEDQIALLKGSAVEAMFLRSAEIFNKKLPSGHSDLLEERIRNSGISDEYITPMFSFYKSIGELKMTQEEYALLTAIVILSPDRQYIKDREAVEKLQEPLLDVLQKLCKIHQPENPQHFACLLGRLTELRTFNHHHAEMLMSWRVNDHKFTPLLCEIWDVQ
- assay explanation: FRET activity assay (ligand mediated cofactor peptide interaction)
- Format: biochemical
metric name: EC50

Qu. Reported EC50, compound O=C(O)c1ccnc(N2CC(O)(c3ccc(OCc4c(-c5c(Cl)cccc5Cl)noc4C4CC4)cc3Cl)C2)c1 (single isomer, unassigned) : ____
Ans. < 25 nM

###

- assay explanation: Parallel Artificial Membrane Permeation Assay (PAMPA)
- Assay type: in vitro ADME
- test context: Flux (%) = (c acceptor well) / sum (c donor well + c acceptor well) × 100 × 2; PBS pH 7.4, 15-16 h at rt
Items are presented alongside their recorded PAMPA, Membrane permeability in % Flux.
Your answer is read as % Flux, so omit the unit and give the number.

Previously resolved entries follow.
{"compound": "O=C(O)c1ccc(C2CC(O)(c3ccc(OCc4c(-c5c(Cl)cccc5Cl)noc4C4CC4)cc3Cl)C2)cc1 (stereo not shown)", "experimental result": 21.1}
{"compound": "O=C(O)c1ccc(C2CC2c2ccc(OCc3c(-c4c(Cl)cccc4Cl)noc3C3CC3)cc2Cl)cc1 (stereo not shown) [reference compound]", "experimental result": 20.7}
{"compound": "O=C(O)c1cccc([C@H]2C[C@](O)(c3ccc(OCc4c(-c5c(Cl)cccc5Cl)noc4C4CC4)cc3Cl)C2)c1 [drawing 47]", "experimental result": 24.0}

// moving on: another record for PAMPA, Membrane permeability in % Flux
Qu. Reported PAMPA, Membrane permeability in % Flux, compound O=C(O)c1cccc(C2CC2c2ccc(OCc3c(-c4c(Cl)cccc4Cl)noc3C3CC3)cc2Cl)c1 (stereo not shown) [reference compound] : ____
Ans. 13.6

###

Items are presented alongside their recorded EC50.
- test target: human FXR alpha ligand binding domain (Homo sapiens, UniProt Q96RI1)
- Construct: made in house; host or cells: E. coli BL21(DE3), vector pDEST15
- assay explanation: FRET activity assay (ligand mediated cofactor peptide interaction)
- Assay type: biochemical
- test context: FXR-LBD/SRC-1 peptide interaction, LANCE; read-out: EC50 (Group), FRET activity assay

Previously resolved entries follow.
{"compound": "O=C(O)c1cccc([C@H]2C[C@](O)(c3ccc(OCc4c(-c5c(Cl)cccc5Cl)noc4C4CC4)cc3Cl)C2)c1 [Example 2]", "test target": "human FXR alpha ligand binding domain (Homo sapiens, UniProt Q96RI1)", "metric name": "EC50", "experimental result": "25 to 100 nM"}
{"compound": "Cc1ccc(C(=O)O)cc1C1CC(O)(c2ccc(OCc3c(-c4c(Cl)cccc4Cl)noc3C3CC3)cc2Cl)C1 (single isomer, unassigned) [13/4]", "test target": "human FXR alpha ligand binding domain (Homo sapiens, UniProt Q96RI1)", "metric name": "EC50", "experimental result": "25 to 100 nM"}
{"compound": "O=C(O)c1cncc(N2CC(O)(c3ccc(OCc4c(-c5c(Cl)cccc5Cl)noc4C4CC4)cc3Cl)C2)c1 (single isomer, unassigned) [13/8]", "test target": "human FXR alpha ligand binding domain (Homo sapiens, UniProt Q96RI1)", "metric name": "EC50", "experimental result": "< 25 nM"}

Qu. Reported EC50, compound CC(C)n1nc(C(=O)O)cc1[C@H]1C[C@@](O)(c2ccc(OCc3c(-c4c(Cl)cccc4Cl)noc3C3CC3)cc2Cl)C1 [Example 8A] : ____
Ans. 25 to 100 nM

Qu. Reported EC50, compound NS(=O)(=O)c1cccc(C2CC(O)(c3ccc(OCc4c(-c5c(Cl)cccc5Cl)noc4C4CC4)cc3Cl)C2)c1 (centres unmarked) [Example 5] : ____
Ans. 25 to 100 nM

Qu. Reported EC50, compound CC(C)n1nc(C(=O)NCC(=O)O)cc1C1CC(O)(c2ccc(OCc3c(-c4c(Cl)cccc4Cl)noc3C3CC3)cc2Cl)C1 (centres unmarked) [Example 14/1] : ____
Ans. < 25 nM

Qu. Reported EC50, compound Cc1cc(C2CC(O)(c3ccc(OCc4c(-c5c(Cl)cccc5Cl)noc4C4CC4)cc3Cl)C2)cc(C)c1C(=O)O (single isomer, unassigned) [13/2] : ____
Ans. > 100 nM

Qu. Reported EC50, compound O=C(O)c1cccc(N2CC(O)(c3ccc(OCc4c(-c5c(Cl)cccc5Cl)noc4C4CC4)cc3Cl)C2)c1 (single isomer, unassigned) [13/7] : ____
Ans. 25 to 100 nM

###

- test target: FXR ligand binding domain (Homo sapiens, UniProt Q96RI1)
- Construct: expressed in transfected cells; host or cells: HEK293 (DSMZ), transient transfection with a pCMV-BD construct
- Sequence (Q96RI1 187-472 isoform Q96RI1-2): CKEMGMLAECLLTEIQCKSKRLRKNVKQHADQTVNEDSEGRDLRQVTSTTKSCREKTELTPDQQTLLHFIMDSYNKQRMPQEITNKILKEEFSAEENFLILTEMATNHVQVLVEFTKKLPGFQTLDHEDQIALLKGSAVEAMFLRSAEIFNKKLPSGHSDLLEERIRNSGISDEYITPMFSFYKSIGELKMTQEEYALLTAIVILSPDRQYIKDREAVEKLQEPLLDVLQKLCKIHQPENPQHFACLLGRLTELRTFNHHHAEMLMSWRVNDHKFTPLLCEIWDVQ
- assay explanation: Mammalian One Hybrid (M1H) assay, Gal4 reporter in HEK293 cells
- Format: cell-based
- test context: Gal4-FXR LBD transactivation, HEK293 cells; read-out: EC50 potency range (Group), M1H assay
metric name: EC50

{"compound": "O=C(O)c1cncc(N2CC(O)(c3ccc(OCc4c(-c5c(Cl)cccc5Cl)noc4C4CC4)cc3Cl)C2)c1 (single isomer, unassigned)", "test target": "FXR ligand binding domain (Homo sapiens, UniProt Q96RI1)", "experimental result": "> 100 nM"}
{"compound": "COc1ccc(C(=O)O)cc1C1CC(O)(c2ccc(OCc3c(-c4c(Cl)cccc4Cl)noc3C3CC3)cc2Cl)C1 (single isomer, unassigned)", "test target": "FXR ligand binding domain (Homo sapiens, UniProt Q96RI1)", "experimental result": "25 to 100 nM"}
{"compound": "COC(=O)c1cccc([C@H]2C[C@](O)(c3ccc(OCc4c(-c5c(Cl)cccc5Cl)noc4C4CC4)cc3Cl)C2)c1", "test target": "FXR ligand binding domain (Homo sapiens, UniProt Q96RI1)", "experimental result": "> 100 nM"}
{"compound": "CC(C)n1nc(C(=O)O)cc1[C@H]1C[C@@](O)(c2ccc(OCc3c(-c4c(Cl)cccc4Cl)noc3C3CC3)cc2Cl)C1", "test target": "FXR ligand binding domain (Homo sapiens, UniProt Q96RI1)", "experimental result": "25 to 100 nM"}

Qu. Reported EC50, compound "CS(=O)(=O)NC(=O)c1cccc([C@H]2C[C@](O)(c3ccc(OCc4c(-c5c(Cl)cccc5Cl)noc4C4CC4)cc3Cl)C2)c1" : ____
Ans. > 100 nM

Qu. Reported EC50, compound Cn1nc(C(=O)O)c2ccc(C3CC(O)(c4ccc(OCc5c(-c6c(Cl)cccc6Cl)noc5C5CC5)cc4Cl)C3)cc21 (stereo not shown) : ____
Ans. 25 to 100 nM

Qu. Reported EC50, compound CC(C)n1nc(C(=O)NCC(=O)O)cc1C1CC(O)(c2ccc(OCc3c(-c4c(Cl)cccc4Cl)noc3C3CC3)cc2Cl)C1 (stereo not shown) : ____
Ans. > 100 nM

Reference source: patent US10485795B2
